Sourced from patent US20220112288A1

Target: T1, human CD4 on cells (SKW3 cells; human PBMCs) (human, UniProt P01730 26-458)
T1 construct: whole, on cells; SKW3 CD4 knockout cells served as the negative cell line in the primary screen; also called hCD4; huCD4
Experiment: FACS binning on SKW3 cells; competitor OKT4a; background 5000, max binding 35000
Parameter: OKT4a signal (anti-hu A647) with supernatant
Give the figure only, with no unit attached.

Please report OKT4a signal (anti-hu A647) with supernatant for the following binder: 75110_06C16A (antibody, V domains shown, Tested as non-clonal AlivaMab Mouse Kappa hybridoma supernatant (detected with anti-mouse Fc gamma and anti-human kappa)) VH: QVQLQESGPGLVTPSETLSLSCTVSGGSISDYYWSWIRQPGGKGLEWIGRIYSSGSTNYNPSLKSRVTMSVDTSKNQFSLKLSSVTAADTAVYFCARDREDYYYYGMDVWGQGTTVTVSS VL: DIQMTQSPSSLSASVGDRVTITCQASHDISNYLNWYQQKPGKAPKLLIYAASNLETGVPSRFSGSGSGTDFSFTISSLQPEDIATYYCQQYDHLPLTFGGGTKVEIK
36800

Please report OKT4a signal (anti-hu A647) with supernatant for the following binder: 75110_06K03A (antibody, V domains shown, Tested as non-clonal AlivaMab Mouse Kappa hybridoma supernatant (detected with anti-mouse Fc gamma and anti-human kappa)) VH: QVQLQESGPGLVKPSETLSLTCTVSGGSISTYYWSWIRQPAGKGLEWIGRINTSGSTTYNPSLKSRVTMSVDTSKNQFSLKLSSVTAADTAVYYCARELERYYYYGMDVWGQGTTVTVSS VL: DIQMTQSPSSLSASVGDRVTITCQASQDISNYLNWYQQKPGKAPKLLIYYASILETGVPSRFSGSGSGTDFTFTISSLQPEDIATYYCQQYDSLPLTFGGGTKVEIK
33200
